Tested on: SW620 (colorectal adenocarcinoma, metastatic)
Assay: MTT assay, SW620
Assay type: cell-based
Settings: Homo sapiens, SW-620, 72 h
Give measured IC50 for each item. Keep answers brief.

Cc1c(O)cc(C(C)C)c2oc(-c3ccc(Br)cc3)nc12 [1d]; 51.5 µM

Parameter requested: IC50. Apply to each item below.
1. Cc1c(O)cc(C(C)C)c2oc(-c3ccc(F)cc3)nc12 [1f]
2. CC1=CC(=O)C(C(C)C)=CC1=O [TQ, Thymoquinone]
3. CC1=C(N)C(=O)C(C(C)C)=CC1=O [ATQ, 3-Aminothymoquinone]
4. Cc1c(O)cc(C(C)C)c2oc(-c3ccccc3)nc12 [1a]
5. Cc1c(O)cc(C(C)C)c2oc(-c3ccc(Cl)cc3)nc12 [1e]
6. Cc1c(O)cc(C(C)C)c2oc(-c3cccs3)nc12 [1j]
7. COc1cc(-c2nc3c(C)c(O)cc(C(C)C)c3o2)ccc1O [1i]

*A*
["5.82 µM", "40 µM", "25.8 µM", "> 100 µM", "79.9 µM", "31.6 µM", "55.3 µM"]

---

Test: MTT assay, WI38 healthy control
Type: cell-based
Details: WI38 human lung fibroblast cells, WI38 healthy control human fibroblast cell line
Decision: IC50 at 72 h beneath 30 µM gives 1; IC50 at 72 h meeting or exceeding 30 µM gives 0.

Cc1c(O)cc(C(C)C)c2oc(-c3ccc(Cl)cc3)nc12 [1e]; 0
CC1=CC(=O)C(C(C)C)=CC1=O [TQ, Thymoquinone]; 1
COc1cc(-c2nc3c(C)c(O)cc(C(C)C)c3o2)ccc1O [1i]; 1
Cc1c(O)cc(C(C)C)c2oc(-c3ccc(F)cc3)nc12 [1f]; 1

*Q* Dear reviewer, please state whether COc1ccc(-c2nc3c(C)c(O)cc(C(C)C)c3o2)cc1 [1h] has IC50 at 72 h strictly beneath 30 µM.
*A* 0

---

Test system: CFPAC-1 (ductal pancreatic adenocarcinoma)
Assay: MTT assay, CFPAC-1
Assay type: cell-based
Conditions: Homo sapiens, 72 h
Give measured IC50 for each item. Keep answers brief.

A selection of reference data follows.
Cc1c(O)cc(C(C)C)c2oc(-c3cccs3)nc12; 27 µM
COc1cc(-c2nc3c(C)c(O)cc(C(C)C)c3o2)ccc1O; 40.6 µM
Cc1c(O)cc(C(C)C)c2oc(-c3ccc([N+](=O)[O-])cc3)nc12; > 100 µM
Cc1c(O)cc(C(C)C)c2oc(-c3ccccc3)nc12; 90.2 µM
CC1=C(N)C(=O)C(C(C)C)=CC1=O; 30.9 µM

Parameter requested: IC50. Apply to each item below.
1. Cc1c(O)cc(C(C)C)c2oc(-c3ccc(F)cc3)nc12
2. Cc1c(O)cc(C(C)C)c2oc(-c3ccc(Cl)cc3)nc12
3. CC1=CC(=O)C(C(C)C)=CC1=O
4. COc1ccc(-c2nc3c(C)c(O)cc(C(C)C)c3o2)cc1

*A*
["33.8 µM", "49.5 µM", "48.3 µM", "97 µM"]

Parameter requested: IC50. Apply to each item below.
1. Cc1c(O)cc(C(C)C)c2oc(-c3ccccc3O)nc12
2. Cc1c(O)cc(C(C)C)c2oc(-c3ccc(Br)cc3)nc12

*A*
31 µM
34.5 µM
